target: ADRBK1 (human); assay: radiometric filter-binding kinase assay, Kinase HotSpot; conditions: compound 0.5 µM; ATP 10 µM
This section presents compounds with their documented residual activity values.
reported property: residual activity (%)

compound: CS(=O)c1ccc(-c2nc(-c3ccc(F)cc3)c(-c3ccncc3)[nH]2)cc1 (stereo not given)
measured value: 101

compound: Cc1ccc(NC(=O)c2ccc(CN3CCN(C)CC3)cc2)cc1Nc1nc(-c2cccnc2)cs1
measured value: 121

compound: CSc1nc(-c2ccc(F)cc2)c(-c2ccnc(NC(C)c3ccccc3)c2)[nH]1 (stereo not given)
measured value: 102

compound: O=c1cc(N2CCNCC2)oc2c(-c3ccccc3)cccc12
measured value: 109

compound: NC(=O)c1ccc(N(C(N)=O)c2c(F)cccc2F)nc1-c1ccc(F)cc1F
measured value: 99

compound: Clc1ccc(Nc2nnc(Cc3ccncc3)c3ccccc23)cc1
measured value: 102

compound: CCN1/C(=C/C(C)=O)Sc2ccc(OC)cc21
measured value: 95.5

compound: O=C(NC(NC(=S)Nc1ccc(F)c([N+](=O)[O-])c1)C(Cl)(Cl)Cl)C(c1ccccc1)c1ccccc1 (stereo not given)
measured value: 79.5

compound: Nc1nc(Nc2ccc(S(N)(=O)=O)cc2)nn1C(=O)c1c(F)cccc1F
measured value: 97.3

compound: CC(C)[C@H](CO)Nc1nc(Nc2cccc(Cl)c2)c2ncn(C(C)C)c2n1
measured value: 103
